target: eIF2 complex (eIF2αβγ) (Saccharomyces cerevisiae, UniProt P32481); construct: gene GCD11; full-length heterotrimer, 8xHis tag on N-terminus of eIF2γ (GCD11), overexpressed from pRS425_GCD11, SUI3, SUI2 in yeast YP920 (sui2Δ sui3Δ gcd11Δ); Ni-NTA, heparin and cation exchange; with Eukaryotic translation initiation factor 2 subunit alpha; test: fluorescence anisotropy titration of protein; type: binding; details: labelled compound at 100 nM; pH 7.5, 110 mM K acetate, 2.5 mM Mg acetate, 26 °C; Hill fit n = 1
Sequence (P32481 whole entry): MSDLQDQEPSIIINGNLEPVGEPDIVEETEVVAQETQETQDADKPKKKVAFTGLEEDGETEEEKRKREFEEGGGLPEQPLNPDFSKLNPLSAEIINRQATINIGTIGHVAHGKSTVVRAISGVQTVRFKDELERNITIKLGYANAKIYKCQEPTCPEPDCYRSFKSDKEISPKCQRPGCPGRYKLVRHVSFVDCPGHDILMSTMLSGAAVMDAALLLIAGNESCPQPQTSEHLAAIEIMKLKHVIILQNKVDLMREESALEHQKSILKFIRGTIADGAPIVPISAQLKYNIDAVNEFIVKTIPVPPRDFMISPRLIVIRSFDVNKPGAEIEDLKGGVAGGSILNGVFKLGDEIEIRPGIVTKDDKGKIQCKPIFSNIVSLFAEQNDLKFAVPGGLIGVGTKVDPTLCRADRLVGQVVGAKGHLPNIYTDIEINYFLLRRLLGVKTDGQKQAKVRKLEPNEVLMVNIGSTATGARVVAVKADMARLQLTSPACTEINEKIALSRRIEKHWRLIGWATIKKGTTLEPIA
Sequence (P09064 whole entry partner): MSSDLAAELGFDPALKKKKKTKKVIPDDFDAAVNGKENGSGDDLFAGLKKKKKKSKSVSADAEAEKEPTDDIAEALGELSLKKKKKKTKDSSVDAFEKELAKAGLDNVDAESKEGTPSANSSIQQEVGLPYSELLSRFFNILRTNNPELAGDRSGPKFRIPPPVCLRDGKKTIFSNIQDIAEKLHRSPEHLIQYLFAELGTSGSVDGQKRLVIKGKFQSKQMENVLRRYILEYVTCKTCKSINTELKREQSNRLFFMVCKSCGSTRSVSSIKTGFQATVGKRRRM
Sequence (P20459 whole entry partner): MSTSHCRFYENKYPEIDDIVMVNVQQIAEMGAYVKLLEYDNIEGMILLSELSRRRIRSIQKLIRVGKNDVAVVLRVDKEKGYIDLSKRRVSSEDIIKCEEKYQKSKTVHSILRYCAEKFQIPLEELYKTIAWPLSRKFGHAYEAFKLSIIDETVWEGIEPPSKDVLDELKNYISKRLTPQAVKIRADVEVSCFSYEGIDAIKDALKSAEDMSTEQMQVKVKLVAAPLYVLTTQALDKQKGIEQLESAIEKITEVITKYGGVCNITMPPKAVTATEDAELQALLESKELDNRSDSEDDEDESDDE
measure.name: Kd (nM)

1 = GDPγS-BODIPY
2 = GDP-BODIPY
Incoming: When their Kd values are compared, which is larger, 1 or 2 ? Answer with the label corresponding to your selection.
Outgoing: 1
(1: 1400 nM, 2: 36.7 nM)
